Source of measurements: paper PMC7827417

The following compounds are shown together with reported pIC50 values.
Test system: K562
Assay: MTS cytotoxic assay, K562
Type: cell-based
Conditions: Homo sapiens, K562, 72 h
Friendly reminder that pIC50 comes from taking -log10 of the concentration in mol/L.

Supply pIC50 measured with K562 for CO[C@H]1C[C@H](O[C@H]2CC[C@]3(C=O)[C@H]4CC[C@]5(C)[C@@H](C6=CC(=O)OC6)CC[C@]5(O)[C@@H]4CC[C@]3(O)C2)O[C@H](C)[C@H]1O [Cy, cymarin] .
7.60

Supply pIC50 measured with K562 for C[C@]12CC[C@H]3[C@@H](CCC4=C[C@@H](O[C@@H]5OC[C@@H](O)[C@H](O)[C@H]5O)CC[C@@]43C=O)[C@@]1(O)CC[C@@H]2C1=CC(=O)OC1 [deHyr, deglucohyrcanoside] .
6.89

Supply pIC50 measured with K562 for C[C@]12CC[C@H]3[C@@H](CCC4=C[C@@H](O[C@@H]5OC[C@@H](O[C@@H]6O[C@H](CO)[C@@H](O)[C@H](O)[C@H]6O)[C@H](O)[C@H]5O)CC[C@@]43C=O)[C@@]1(O)CC[C@@H]2C1=CC(=O)OC1 [Hyr] .
6.10
